ASSAYED_TARGET: interaction between p53 and MDM2 proteins (Homo sapiens, UniProt Q00987)
Sequence (Q00987 whole entry): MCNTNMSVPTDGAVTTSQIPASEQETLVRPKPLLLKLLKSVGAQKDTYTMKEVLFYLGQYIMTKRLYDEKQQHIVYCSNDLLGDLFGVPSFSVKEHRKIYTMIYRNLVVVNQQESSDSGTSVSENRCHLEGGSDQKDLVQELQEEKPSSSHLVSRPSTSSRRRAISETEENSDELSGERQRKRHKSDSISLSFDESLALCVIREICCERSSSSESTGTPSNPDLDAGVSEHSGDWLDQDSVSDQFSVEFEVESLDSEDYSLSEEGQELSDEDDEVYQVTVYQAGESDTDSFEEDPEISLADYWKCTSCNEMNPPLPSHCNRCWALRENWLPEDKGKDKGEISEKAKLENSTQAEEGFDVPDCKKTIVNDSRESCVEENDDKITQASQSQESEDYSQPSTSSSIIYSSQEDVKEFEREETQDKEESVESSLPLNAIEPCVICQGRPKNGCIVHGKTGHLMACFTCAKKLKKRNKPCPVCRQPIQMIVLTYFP
ASSAY_DETAILS: HTRF assay of inhibition of the p53-MDM2 interaction (GST-MDM2 / biotinylated p53 peptide)
CONDITION_LABEL: recombinant GST-tagged MDM2 and biotinylated p53 peptide, bsa:0.02%
PROPERTY: IC50

Incoming: # return recorded IC50 for input CC(C)(C)C[C@@H]1N[C@@H](C(=O)Nc2ccc(C(N)=O)cc2)[C@H](c2cccc(Br)c2F)[C@]12C(=O)Nc1cc(Cl)ccc12 (racemic) [Example 99]
Outgoing: 0.018 µM

Incoming: # return recorded IC50 for input CC(C)(C)C[C@@H]1N[C@@H](C(=O)Nc2ccc(C#N)cc2)[C@H](c2cc(F)cc(Cl)c2)[C@]12C(=O)Nc1cc(Cl)ccc12 (racemic) [Example 88]
Outgoing: 0.013 µM

Incoming: # return recorded IC50 for input COc1cc(NC(=O)[C@@H]2N[C@@H](CC(C)(C)C)[C@@]3(C(=O)Nc4cc(Cl)ccc43)[C@H]2c2cccc(Cl)c2F)ccc1C(N)=O (racemic) [Example 22]
Outgoing: 0.011 µM

Incoming: # return recorded IC50 for input CN(C)C(=O)c1ccc(NC(=O)[C@@H]2N[C@@H](CC(C)(C)C)[C@@]3(C(=O)Nc4cc(Cl)ccc43)[C@H]2c2cccc(Cl)c2F)cc1 [Example 35]
Outgoing: 0.005 µM

Incoming: # return recorded IC50 for input CC(C)(C)C[C@@H]1N[C@@H](C(=O)Nc2nc(C(N)=O)cs2)[C@H](c2cccc(Cl)c2F)[C@]12C(=O)Nc1cc(Cl)ccc12 (racemic) [Example 198]
Outgoing: 0.012 µM

Incoming: # return recorded IC50 for input CCOC(=O)CNc1ccc(NC(=O)[C@@H]2N[C@@H](CC(C)(C)C)[C@@]3(C(=O)Nc4cc(Cl)ccc43)[C@H]2c2cccc(Cl)c2F)cc1 (racemic) [Example 217]
Outgoing: 0.013 µM

Incoming: # return recorded IC50 for input CC(C)(C)C[C@@H]1N[C@@H](C(=O)Nc2ccc(C(=O)CO)cc2)[C@H](c2cccc(Cl)c2F)[C@]12C(=O)Nc1cc(Cl)ccc12 (racemic) [Example 42]
Outgoing: 0.014 µM

Incoming: # return recorded IC50 for input COc1cc(C(=O)NC#N)ccc1NC(=O)[C@@H]1N[C@@H](CC(C)(C)C)[C@@]2(C(=O)Nc3cc(Cl)ccc32)[C@H]1c1cccc(Cl)c1F [Example 223]
Outgoing: 0.007 µM

Incoming: # return recorded IC50 for input COc1cc(NC(=O)[C@@H]2N[C@@H](CC(C)(C)C)[C@@]3(C(=O)Nc4cc(Cl)ccc43)[C@H]2c2cccc(Cl)c2F)ccc1C(=O)O [Example 17]
Outgoing: 0.004 µM

Incoming: # return recorded IC50 for input COc1cnccc1NC(=O)[C@@H]1N[C@@H](CC(C)(C)C)[C@@]2(C(=O)Nc3cc(Cl)ccc32)[C@H]1c1cccc(Cl)c1F (racemic) [Example 162]
Outgoing: 0.019 µM

Incoming: # return recorded IC50 for input CC(C)(C)C[C@@H]1N[C@@H](C(=O)Nc2ccc(C#N)cc2)[C@H](c2cccc(Cl)c2F)[C@]12C(=O)Nc1c2ccc(Cl)c1F (racemic) [Example 175]
Outgoing: 0.04 µM

====

ASSAYED_TARGET: interaction between p53 and MDM2 proteins (Homo sapiens, UniProt Q00987)
ASSAY_DETAILS: HTRF assay of inhibition of the p53-MDM2 interaction (GST-MDM2 / biotinylated p53 peptide)
CONDITION_LABEL: recombinant GST-tagged MDM2 and biotinylated p53 peptide, bsa:0.02%
pIC50: −log10 of the molar value.
Use 8 as the dividing line for pIC50, with the line itself on the true (1) side and lower values as false (0).

Incoming: Answer whether pIC50 of COc1cc(CC(N)=O)ccc1NC(=O)[C@@H]1N[C@@H](CC(C)(C)C)[C@@]2(C(=O)Nc3cc(Cl)ccc32)[C@H]1c1cccc(Cl)c1F [Example 161] is greater than or equal to 8.
Outgoing: true (1)

Incoming: Answer whether pIC50 of CC(C)(C)C[C@@H]1N[C@@H](C(=O)Nc2ccc(F)cc2)[C@H](c2cccc(Cl)c2F)[C@]12C(=O)Nc1cc(Cl)ccc12 (racemic) [Example 13] is greater than or equal to 8.
Outgoing: false (0)

====

ASSAYED_TARGET: interaction between p53 and MDM2 proteins (Homo sapiens)
ASSAY_DETAILS: HTRF assay of inhibition of the p53-MDM2 interaction (GST-MDM2 / biotinylated p53 peptide)
Format: binding
CONDITION_LABEL: recombinant GST-tagged MDM2 and biotinylated p53 peptide, bsa:0.02%
PROPERTY: IC50 (nM)
Give a bare numeral; the unit nM is implied.

Incoming: Under interaction between p53 and MDM2 proteins (Homo sapiens): report IC50 of COc1cc(C(N)=O)ccc1NC(=O)[C@@H]1N[C@@H](CC(C)(C)C)[C@@]2(C(=O)Nc3cc(Cl)ccc32)[C@H]1c1cccc(Cl)c1 (racemic) .
Outgoing: 10

Incoming: Under interaction between p53 and MDM2 proteins (Homo sapiens): report IC50 of COc1cc(N(C)C)ccc1NC(=O)[C@@H]1N[C@@H](CC(C)(C)C)[C@@]2(C(=O)Nc3cc(Cl)ccc32)[C@H]1c1cccc(Cl)c1F (racemic) .
Outgoing: 18

Incoming: Under interaction between p53 and MDM2 proteins (Homo sapiens): report IC50 of COc1cc(NC(=O)[C@@H]2N[C@@H](CC(C)(C)C)[C@@]3(C(=O)Nc4cc(Cl)ccc43)[C@H]2c2cccc(Cl)c2F)ccc1C(=O)O (racemic) [Example 16] .
Outgoing: 10

Incoming: Under interaction between p53 and MDM2 proteins (Homo sapiens): report IC50 of CC(=O)c1ccc(NC(=O)[C@@H]2N[C@@H](CC(C)(C)C)[C@@]3(C(=O)Nc4cc(Cl)ccc43)[C@H]2c2cccc(Cl)c2F)cc1 [Example 12] .
Outgoing: 6

Incoming: Under interaction between p53 and MDM2 proteins (Homo sapiens): report IC50 of COc1cc(S(=O)(=O)N2CCOCC2)ccc1NC(=O)[C@@H]1N[C@@H](CC(C)(C)C)[C@@]2(C(=O)Nc3cc(Cl)ccc32)[C@H]1c1cccc(Cl)c1F [Example 154] .
Outgoing: 4

Incoming: Under interaction between p53 and MDM2 proteins (Homo sapiens): report IC50 of CC(C)(C)C[C@@H]1N[C@@H](C(=O)Nc2ccc(C(N)=O)cc2)[C@H](c2cccc(Cl)c2F)[C@]12C(=O)Nc1cc(Cl)c(F)cc12 (racemic) [Example 49] .
Outgoing: 13

Incoming: Under interaction between p53 and MDM2 proteins (Homo sapiens): report IC50 of COc1cc(N2CC(C)OC(C)C2)ccc1NC(=O)[C@@H]1N[C@@H](CC(C)(C)C)[C@@]2(C(=O)Nc3cc(Cl)ccc32)[C@H]1c1cccc(Cl)c1F (mixture of isomers) .
Outgoing: 19

Incoming: Under interaction between p53 and MDM2 proteins (Homo sapiens): report IC50 of CC(C)(C)C[C@@H]1N[C@@H](C(=O)Nc2ccc(S(C)(=O)=O)cc2)[C@H](c2cccc(Cl)c2F)[C@]12C(=O)Nc1cc(Cl)ccc12 (racemic) .
Outgoing: 13

Incoming: Under interaction between p53 and MDM2 proteins (Homo sapiens): report IC50 of CC(C)(C)C[C@@H]1N[C@@H](C(=O)Nc2ccc(C(N)=O)cc2)[C@H](c2cccc(Cl)c2F)[C@]12C(=O)Nc1cc(Cl)ccc12 [Example 9] .
Outgoing: 4

Incoming: Under interaction between p53 and MDM2 proteins (Homo sapiens): report IC50 of COc1cc(C(=O)O)c(F)cc1NC(=O)[C@@H]1N[C@@H](CC(C)(C)C)[C@@]2(C(=O)Nc3cc(Cl)ccc32)[C@H]1c1cccc(Cl)c1F [Example 221] .
Outgoing: 5

Incoming: Under interaction between p53 and MDM2 proteins (Homo sapiens): report IC50 of CC(C)(C)C[C@@H]1N[C@@H](C(=O)Nc2ccc(C(N)=O)cc2F)[C@H](c2cccc(Cl)c2F)[C@]12C(=O)Nc1cc(Cl)cc(F)c12 (racemic) .
Outgoing: 13

Incoming: Under interaction between p53 and MDM2 proteins (Homo sapiens): report IC50 of Cn1cccc1NC(=O)[C@@H]1N[C@@H](CC(C)(C)C)[C@@]2(C(=O)Nc3cc(Cl)ccc32)[C@H]1c1cccc(Cl)c1F (racemic) .
Outgoing: 15

Incoming: Under interaction between p53 and MDM2 proteins (Homo sapiens): report IC50 of COc1cc(C(N)=O)ccc1NC(=O)[C@@H]1N[C@@H](CC(C)(C)C)[C@@]2(C(=O)Nc3cc(Cl)c(F)cc32)[C@H]1c1cccc(Cl)c1F (racemic) .
Outgoing: 9

Incoming: Under interaction between p53 and MDM2 proteins (Homo sapiens): report IC50 of CNc1cc(C(=O)O)ccc1NC(=O)[C@@H]1N[C@@H](CC(C)(C)C)[C@@]2(C(=O)Nc3cc(Cl)ccc32)[C@H]1c1cccc(Cl)c1F (racemic) .
Outgoing: 10

Incoming: Under interaction between p53 and MDM2 proteins (Homo sapiens): report IC50 of COc1cc(NS(C)(=O)=O)ccc1NC(=O)[C@@H]1N[C@@H](CC(C)(C)C)[C@@]2(C(=O)Nc3cc(Cl)ccc32)[C@H]1c1cccc(Cl)c1F (racemic) .
Outgoing: 13

Incoming: Under interaction between p53 and MDM2 proteins (Homo sapiens): report IC50 of CC(C)(C)C[C@@H]1N[C@@H](C(=O)Nc2ccc(OCC(=O)O)cc2)[C@H](c2cccc(Cl)c2F)[C@]12C(=O)Nc1cc(Cl)ccc12 (racemic) .
Outgoing: 6

Incoming: Under interaction between p53 and MDM2 proteins (Homo sapiens): report IC50 of CC(C)(C)C[C@@H]1N[C@@H](C(=O)Nc2ccc(CC(=O)O)cc2)[C@H](c2cccc(Cl)c2F)[C@]12C(=O)Nc1cc(Cl)ccc12 (racemic) .
Outgoing: 15

Incoming: Under interaction between p53 and MDM2 proteins (Homo sapiens): report IC50 of COC(=O)c1ccc(NC(=O)[C@@H]2N[C@@H](CC(C)(C)C)[C@@]3(C(=O)Nc4cc(Cl)ccc43)[C@H]2c2cccc(Cl)c2F)s1 (racemic) .
Outgoing: 22

Incoming: Under interaction between p53 and MDM2 proteins (Homo sapiens): report IC50 of CC(C)(C)C[C@@H]1N[C@@H](C(=O)Nc2ccc(OCC(N)=O)cc2)[C@H](c2cccc(Cl)c2F)[C@]12C(=O)Nc1cc(Cl)ccc12 (racemic) .
Outgoing: 15

Incoming: Under interaction between p53 and MDM2 proteins (Homo sapiens): report IC50 of CC(C)(C)C[C@@H]1N[C@@H](C(=O)Nc2ccc(C(=O)O)cc2)[C@H](c2cccc(Cl)c2F)[C@]12C(=O)Nc1cc(Cl)ccc12 (racemic) .
Outgoing: 11

Incoming: Under interaction between p53 and MDM2 proteins (Homo sapiens): report IC50 of COc1cc(C(N)=O)ccc1NC(=O)[C@@H]1N[C@@H](CC(C)(C)C)[C@@]2(C(=O)Nc3cc(Br)ccc32)[C@H]1c1cccc(Cl)c1F (racemic) .
Outgoing: 7

Incoming: Under interaction between p53 and MDM2 proteins (Homo sapiens): report IC50 of CC(C)(C)C[C@@H]1N[C@@H](C(=O)Nc2ccc(C#N)cc2)[C@H](c2cccc(Cl)c2)[C@]12C(=O)Nc1cc(Cl)ccc12 (racemic) .
Outgoing: 34
